The measurements presented in this section are drawn from PubChem BioAssay AID1159580.

# method: chemical genetic growth profiling, strain panel (AID 1159580);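 further: tested at 20 µM; growth read once vehicle control cultures reached saturation at 30 °C; 1 = growth at the plate median or of vehicle wells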
# conditions_used: S. cerevisiae deletion strains, growth OD, locus YLL041C, strain sdh2, stronger effect = lower value
In all, about 5,500 compounds went through this assay and about 2,000 (36%) were called active. Inconclusive results (about 18%) are left out. The list shows a part of the results. *1 amine or outer side, *2 acyl side, *3 side chain or, on linkers, in order; H or OH if unused. Where a SMILES comes first, the peptide text is derived from it. Bridges are numbered along the chain shown (N, C = ends). [ ]: non-standard residue; d: D form. The star is where a group is joined. ξ: configuration not given here. ΔAla(E,3-NHCONH2) = NC(=O)N/C=C(/N)C(=O)O; X2 = NC1=NCCC(C(N[*:1])C(=O)[*:2])N1; ξβ3hOrn = NCCCC(N)CC(=O)*; Dap = NC[CH](N)C(=O)O
outcome_measure: normalized growth

Name the reported normalized growth value associated with the compound CC(=O)OCC(=O)[C@@]1(O)CCC2C3CCC4=CC(=O)CC[C@]4(C)C3[C@@H](O)C[C@@]21C (some centres undefined)
1.03 (inactive)

Next entry: O=C(O)c1cc(=O)c2cccc(O)c2[nH]1
1 (inactive)

Another compound: COc1cc2c(cc1OC)[C@@]13CCN4CC5=CCOC6CC(=O)N2C1[C@H]6[C@H]5C[C@H]43 (some centres undefined)
0.995 (inactive)

Now consider CNS(=O)(=O)c1ccc(NC(=O)c2ccccc2C(=O)O)cc1 and answer again.
1 (inactive)

# iterate: CNS(=O)(=O)Cc1ccc2[nH]cc(CCN(C)C)c2c1
1.02 (inactive)

Would you mind doing NC(N)=NC(N)=Nc1ccccc1 as well?
1 (inactive)

Also, CCCc1nc2c(C)cc(-c3nc4ccccc4n3C)cc2n1Cc1ccc(-c2ccccc2C(=O)O)cc1 please.
1.01 (inactive)

Please do the same for NCCCC(N)CC(=O)NCC1NC(=O)C(CO)NC(=O)C(N)CNC(=O)C(C2CCN=C(N)N2)NC(=O)/C(=C\NC(N)=O)NC1=O (stereo not drawn) (H-[Dap]S[Dap](ξβ3hOrn)[ΔAla(E,3-NHCONH2)][X2]; lactam 1-C; configuration not given here) as well.
1.02 (inactive)

---
Could you share which normalized growth value was measured for C[C@]12CCC(=O)C=C1CCC1C2[C@@H](O)C[C@@]2(C)C1CC[C@]2(O)C(=O)COC(=O)CCC(=O)O (some centres undefined) ?
1.03 (inactive)

###

# method: chemical genetic growth profiling, strain panel (AID 1159580)
# conditions_used: S. cerevisiae deletion strains, growth OD, locus YIL066C, strain RNR3
Among all 5,500 compounds or so, about 2,000 (36%) were called active. Inconclusive results (about 18%) are left out. No stated cut-off is given here; in the data, active means normalized growth mostly below about 0.91 (no sharp cut-off); inconclusive means no clear call, values can overlap the other calls; inactive means mostly above about 0.92. This is one part of the list.
// one of active, inactive, no free text

Assay outcome for CN1CCN(CC(=O)N2c3ccccc3C(=O)Nc3cccnc32)CC1 : what was it?
inactive

What would you report for COC(=O)[C@]1(C)CC[C@]2(C)CC[C@]3(C)C4=CC=C5C(=CC(=O)C(O)=C5C)[C@]4(C)CC[C@@]3(C)[C@@H]2C1 ?
active

Further cases:
Could you check what this test reported for O=C(OC[C@H]1O[C@H](OC(=O)c2cc(O)c(O)c(OC(=O)c3cc(O)c(O)c(O)c3)c2)[C@H](OC(=O)c2cc(O)c(O)c(OC(=O)c3cc(O)c(O)c(O)c3)c2)[C@@H](OC(=O)c2cc(O)c(O)c(OC(=O)c3cc(O)c(O)c(O)c3)c2)[C@@H]1OC(=O)c1cc(O)c(O)c(OC(=O)c2cc(O)c(O)c(O)c2)c1)c1cc(O)c(O)c(OC(=O)c2cc(O)c(O)c(O)c2)c1 ?
active

###

Measured normalized growth, listed per entry.
# method: chemical genetic growth profiling, strain panel (AID 1159580)
# conditions_used: S. cerevisiae deletion strains, growth OD, locus YOR083W, strain WHI5, stronger effect = lower value
Among all 5,500 compounds or so, about 2,000 (36%) were called active. Not shown: some 18% with an inconclusive outcome. The list shows a part of the results.

// returns reported normalized growth for input OCc1c[nH]c2ccccc12
0.987 (inactive)

Can you handle CC1(C)S[C@@H]2[C@H](NC(=O)Cc3ccccc3)C(=O)N2[C@H]1C(=O)O next?
0.987 (inactive)

Similarly, NCCc1c[nH]c2ccccc12 ?
0.982 (inactive)

Again, but for CC(=O)OCC(=O)[C@@]12OC3(CCCC3)O[C@@H]1CC1C3CCC4=CC(=O)C=C[C@]4(C)[C@@]3(F)[C@@H](O)C[C@@]12C (stereo partly specified)
0.998 (inactive)

Proceed to O=C(NC1CCCCC1)NC1CCCCC1
0.971 (inactive)

Kindly consider the entry below.
What value of normalized growth has been recorded for this entry: CCCc1nc2c(C)cc(-c3nc4ccccc4n3C)cc2n1Cc1ccc(-c2ccccc2C(=O)O)cc1
1.01 (inactive)

###

# method: chemical genetic growth profiling, strain panel (AID 1159580);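 further: tested at 20 µM; growth read once vehicle control cultures reached saturation at 30 °C; 1 = growth at the plate median or of vehicle wells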
# conditions_used: S. cerevisiae strains, growth OD, strain wild type, stronger effect = lower value
The campaign covered roughly 5,500 compounds. About 2,000 (36%) were called active. Not shown: some 18% with an inconclusive outcome. Some of the results follow. *1 amine or outer side, *2 acyl side, *3 side chain or, on linkers, in order; H or OH if unused. Where a SMILES comes first, the peptide text is derived from it. Bridges are numbered along the chain shown (N, C = ends). Side-chain parts run from the residue outwards. [ ]: non-standard residue; d: D form. The star is where a group is joined. ξ: configuration not given here. ΔAla(E,3-NHCONH2) = NC(=O)N/C=C(/N)C(=O)O; X2 = NC1=NCCC(C(N[*:1])C(=O)[*:2])N1; X1 = CCC(C)C(N)C1=NC(C(=O)*)CS1; ξβ3hOrn = NCCCC(N)CC(=O)*; Orn = NCCC[CH](N)C(=O)O; Dap = NC[CH](N)C(=O)O
// normalized growth lookup, one value per entry
// response body must contain only the number

Suppose we examine the compound NCCCC(N)CC(=O)NCC1NC(=O)C(CO)NC(=O)C(N)CNC(=O)C(C2CCN=C(N)N2)NC(=O)/C(=C\NC(N)=O)NC1=O (stereo not drawn) (H-[Dap]S[Dap](ξβ3hOrn)[ΔAla(E,3-NHCONH2)][X2]; lactam 1-C; configuration not given here) ; what normalized growth value has been reported?
1

Another: CC(N)C(O)c1ccc(O)c(O)c1 (stereo not given)
0.994

Another compound to check: CCC(C)C(N)C1=NC(C(=O)NC(CC(C)C)C(=O)NC(CCC(=O)O)C(=O)NC(C(=O)NCCCCC2NC(=O)C(CC(N)=O)NC(=O)C(CC(=O)O)NC(=O)C(Cc3cnc[nH]3)NC(=O)C(Cc3ccccc3)NC(=O)C(C(C)CC)NC(=O)C(CCCN)NC2=O)C(C)CC)CS1 (stereo not drawn) (cyclo(DNK([Ile-Glu-Leu-X1])[Orn]IFH); configuration not given here)
0.992

Also need COP(=O)(OC)OC(Br)C(Cl)(Cl)Br (stereo not given) , thanks.
0.994

Continuing:
What does the record list as normalized growth for CN1CCN(CC(=O)N2c3ccccc3C(=O)Nc3cccnc32)CC1 ?
1.01

###

# method: chemical genetic growth profiling, strain panel (AID 1159580);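 further: tested at 20 µM; growth read once vehicle control cultures reached saturation at 30 °C; 1 = growth at the plate median or of vehicle wells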
# conditions_used: S. cerevisiae deletion strains, growth OD, locus YLR262C, strain YPT6 (second series), stronger effect = lower value
In all, about 5,500 compounds went through this assay and about 2,000 (36%) were called active. Another 18% or so got no clear call; they are omitted. This is one part of the list.
Here the recorded normalized growth is given for each entry.
Reply with the value as a number alone.

Recorded normalized growth for CN1C(=O)CCS(=O)(=O)C1c1ccc(Cl)cc1 (stereo unspecified) , please?
0.987

Again, but for CC[C@@H](CO)NC(=O)[C@@H]1C=C2c3cccc4[nH]cc(c34)C[C@H]2N(C)C1
0.991

Next up: NC(=O)NO
1

Can you check CCNc1nc(Cl)nc(NCC)n1 next?
0.992

CCOC([O-])=Nc1c[n+](N2CCOCC2)no1 ?
1.01

Proceed to CCCc1nc2c(C)cc(-c3nc4ccccc4n3C)cc2n1Cc1ccc(-c2ccccc2C(=O)O)cc1
0.975

Repeat for the following molecule: CC(NCCC(c1ccccc1)c1ccccc1)c1ccccc1 (stereo unspecified)
0.986

Please give the result for NC1C[C@H]1c1ccccc1 (stereo partly specified) too.
0.974

New cases:
What measured normalized growth goes with Cc1cc(C(C)(C)C)c(O)c(C)c1CC1=NCCN1 ?
1.02

What do you have for CCCCc1nc(Cl)c(CO)n1Cc1ccc(-c2ccccc2-c2nn[nH]n2)cc1 ?
0.995

Now the same for CCC1(CC)C(=O)C=CNC1=O
1.02

###

# method: chemical genetic growth profiling, strain panel (AID 1159580);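 further: tested at 20 µM; growth read once vehicle control cultures reached saturation at 30 °C; 1 = growth at the plate median or of vehicle wells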
# conditions_used: S. cerevisiae deletion strains, growth OD, locus YDR388W, stronger effect = lower value
Screen size: about 5,500 compounds; about 2,000 (36%) were called active. Not shown: some 18% with an inconclusive outcome. This is one part of the list.
Catalogue of normalized growth values

// worked examples, normalized growth included
Which normalized growth is reported for this compound? Cc1onc(-c2ccccc2Cl)c1C(=O)N[C@@H]1C(=O)N2[C@@H]1SC(C)(C)[C@@H]2C(=O)O
1.02 (inactive)

Can you check COc1cc(O)cc(OC)c1OC next?
1.01 (inactive)

Now give it for CC(=O)Oc1cc2c(c(C)c1OC(C)=O)CC1OC13C2(C)CCC1(C)C2CC(C)(C(=O)O)CCC2(C)CCC13C (stereo not given) too.
1.02 (inactive)

Others:
Given the entry O=C(O)[C@H](O)[C@@](O)(Cc1ccc(O)cc1)C(=O)O , report its measured normalized growth.
1 (inactive)

Could you do the same for CC1(C)S[C@@H]2[C@H](NC(=O)Cc3ccccc3)C(=O)N2[C@H]1C(=O)O , please?
1.02 (inactive)
